# Test system: MS2 coat protein
# PROCEDURE SUMMARY: apparent KD of MS2 coat protein; designed switch direction (-1 OFF switch, 1 ON switch): 1; higher = weaker reporter binding
# CONDITION SET: Eterna round: R95; input ligand: microRNA oligo, concentration not stated
Output true (1) for apparent KD of MS2 coat protein not less than 70 nM; output false (0) otherwise.

Completed entries (count: 5):
* AGUCCAGCCAGAGCUGGACAAAAGCAUGUACAUGAGGAUCACCCAUGUUCAUGUACAAGCUUUUUGCUCGUCAAAAG [Mat - hsa-mir-208a - Mod of JL - 69] (puzzle: Sensor for hsa-mir-208a) | false (0)
* CAAGCUUGGGUCGUCCCGCUCGUCUACAAACAUGAGGAUCACCCAUGUAAAAUCUAAAAUUCAAAUCUAUCUCUAAA [Getienre] (puzzle: Sensor for hsa-mir-208a) | false (0)
* CAAGCUUGGGUCGUCCCGCUCGUCUACAAACAUGAGGAUCACCCAUGUAUGCUCUUCGCAUCAAUUCUAUCUCUUGG [Quxeteor] (puzzle: Sensor for hsa-mir-208a) | false (0)
* GGUUUAGUCAAGUGCCGUUGCACUUGAAAACAUGAGGAUCACCCAUGUUUGGGACAAGCUUUGCUCCUCGUCUUUCC [Tiatmaraen] (puzzle: Sensor for hsa-mir-208a) | false (0)
* GAUUAACAUGAGGAUCACCCAUGUCGUUAUAUGGGAGGAUAUACGUGGACCGUAGUCCGCGUAGAAGGCCUAAUUG [Mat - Same State 1 - Mod of JL - D23] (puzzle: Same State 1) | true (1)

Q) Please indicate if the recorded apparent KD of MS2 coat protein for AGUCCAGCCAGAGCUGGACAAAAGCAUGUACAUGAGGAUCACCCAUGUCAUGUACAAGCUUUUUGCUCGUCUUAAUA [Mat - hsa-mir-208a - Mod of JL - D37] (puzzle: Sensor for hsa-mir-208a) meets or exceeds 70 nM.
A) false (0)

Q) Decide: is the reported value of apparent KD of MS2 coat protein for AUUAUACAUGAGGAUCACCCAUGUCAAUGUAGUCGAGGAUAUGGGCAGCUGUGAGGCGUACUAGAAGGCGAAGAGA [Mat - Same State 1 - Mod of JL - D9] (puzzle: Same State 1) equal to or greater than 70 nM?
A) true (1)

Q) Dear colleague, could you confirm whether GGUCCGGCCUGAGCUGGACCGAAGCAUGUACAUGAGGAUCACCCAUGUCAUGUACAGGCUUCUUGCUCGUCUUGUUG [JL-shm-2.15 JL Mod] (puzzle: Sensor for hsa-mir-208a) has apparent KD of MS2 coat protein at or above 70 nM?
A) false (0)

Q) Please tell me: is the sequence AACAAUCUAUCUGAGGAUAUCAUGAAAUAAACAUGAGGAUCACCCAUGUUCAGGAAAACUGCAUAUGAGAAGGCAGAUAGAUUGA [salish99_ss2_r3_035] (puzzle: Same State 2) at or over 70 nM in terms of apparent KD of MS2 coat protein?
A) false (0)

Sourced from the supplement of paper PMC9170038
